- target-of-assay: CRAF (Homo sapiens, UniProt P04049)
- Construct: fused on or other part: GST tag (N-terminal according to the vendor's product)
- Sequence (P04049 whole entry Y340E/Y341E, form open, the tested form may be a part): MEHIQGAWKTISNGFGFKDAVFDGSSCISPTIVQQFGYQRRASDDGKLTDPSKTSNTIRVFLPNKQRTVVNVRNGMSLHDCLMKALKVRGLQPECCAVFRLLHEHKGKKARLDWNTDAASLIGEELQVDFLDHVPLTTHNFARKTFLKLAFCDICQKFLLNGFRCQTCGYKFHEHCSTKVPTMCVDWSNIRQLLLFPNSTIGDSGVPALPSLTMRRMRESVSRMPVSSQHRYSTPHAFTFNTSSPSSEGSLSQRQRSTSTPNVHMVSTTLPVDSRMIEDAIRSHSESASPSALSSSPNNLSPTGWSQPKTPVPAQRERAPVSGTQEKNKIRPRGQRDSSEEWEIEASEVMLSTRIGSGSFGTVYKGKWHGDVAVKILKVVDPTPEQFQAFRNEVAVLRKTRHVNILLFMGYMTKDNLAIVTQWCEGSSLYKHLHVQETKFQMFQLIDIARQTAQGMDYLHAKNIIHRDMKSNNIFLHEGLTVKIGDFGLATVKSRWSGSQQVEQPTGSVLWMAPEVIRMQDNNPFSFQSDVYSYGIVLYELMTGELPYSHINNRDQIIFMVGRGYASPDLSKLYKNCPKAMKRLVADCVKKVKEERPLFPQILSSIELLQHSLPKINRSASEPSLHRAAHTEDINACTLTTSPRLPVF
- test-protocol: CRAF kinase activity assay (ADP-Glo)
- Assay type: biochemical
- condition-details: Table 3; 10 μM ATP, kinase-dead MEK1 substrate
recorded-endpoint: IC50

Below, 3 molecules whose answers are already recorded.
molecule	target-of-assay	IC50
N#CC1CCN(c2cccc3c2ncn3-c2nc3c(Nc4c(F)ccc(NS(=O)(=O)c5cccc(Cl)c5Cl)c4F)ncnc3s2)CC1	CRAF (Homo sapiens, UniProt P04049)	0.01 to 0.05 µM
Cc1c(F)cccc1S(=O)(=O)Nc1ccc(F)c(Nc2ncnc3sc(-n4nc(C(=O)N(C)CCN(C)C)c5ccccc54)nc23)c1F [Example 27]	CRAF (Homo sapiens, UniProt P04049)	0.01 to 0.05 µM
CN1CCN(S(=O)(=O)c2cn(-c3nc4c(Nc5c(F)ccc(NS(=O)(=O)c6cccc(Cl)c6Cl)c5F)ncnc4s3)c3ccccc23)CC1	CRAF (Homo sapiens, UniProt P04049)	0.01 to 0.05 µM

Okay, now this molecule:
Ask: Which IC50 value is on record for O=C(c1cn(-c2nc3c(Nc4c(F)ccc(NS(=O)(=O)c5cccc(Cl)c5Cl)c4F)ncnc3s2)c2ccccc12)N1CCCC(O)C1 (stereo not shown) ?
Result: < 0.01 µM
